molecular target: Cyclin-dependent kinase 5/CDK5 activator 1 (Homo sapiens) (UniProt Q00535+Q15078); assay: Inhibition of CDK5/p25 (unknown origin) at 1 uM incubated for 30 to 60 mins presence of dithiothreitol by Cheng-Prusoff equation analysis relative to control; type: protein-complex assay; conditions: time 30-60 min
Sequence (Q00535 whole entry): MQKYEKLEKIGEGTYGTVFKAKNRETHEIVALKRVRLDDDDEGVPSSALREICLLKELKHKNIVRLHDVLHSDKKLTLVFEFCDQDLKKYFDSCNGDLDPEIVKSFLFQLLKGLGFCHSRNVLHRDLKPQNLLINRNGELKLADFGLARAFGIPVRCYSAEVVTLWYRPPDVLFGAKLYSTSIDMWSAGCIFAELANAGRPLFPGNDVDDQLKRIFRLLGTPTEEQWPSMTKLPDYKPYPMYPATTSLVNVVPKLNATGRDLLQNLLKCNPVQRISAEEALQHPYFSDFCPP
Sequence (Q15078 99-307 partner limits assumed): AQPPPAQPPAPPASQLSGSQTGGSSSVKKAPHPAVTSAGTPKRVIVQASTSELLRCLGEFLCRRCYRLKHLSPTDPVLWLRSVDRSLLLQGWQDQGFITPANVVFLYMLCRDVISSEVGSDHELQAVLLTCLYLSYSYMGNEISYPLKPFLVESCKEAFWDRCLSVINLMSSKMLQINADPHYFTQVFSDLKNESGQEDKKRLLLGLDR
Reported inhibition values are given for each entry in this list.
Numbers only here, please. The scale is %.

1. Cn1cc(-c2nc(Nc3cccc([N+](=O)[O-])c3)ncc2Cl)cn1 :: 56
2. Cn1nccc1-c1nc(Nc2cccc(S(N)(=O)=O)c2)ncc1F :: 48
3. Nc1cc(-c2cnn(Cc3ccccc3)c2)nc(Nc2cccc(S(N)(=O)=O)c2)n1 :: 40
4. Cn1cc(-c2nc(Nc3ccc(S(=O)(=O)C(F)(F)F)cc3)ncc2F)cn1 :: 46

Moving on to the next compound.
The value of inhibition recorded for `Cn1cc(-c2nc(Nc3cccc(S(=O)(=O)C(F)(F)F)c3)ncc2Cl)cn1` when tested on Cyclin-dependent kinase 5/CDK5 activator 1 (Homo sapiens) (UniProt Q00535+Q15078) reads 58

###

molecular target: CDK9/cyclin T1 (Homo sapiens) (UniProt O60563+P50750); test: Inhibition of CDK9/cyclin T1 (unknown origin) at 1 uM incubated for 30 to 60 mins presence of dithiothreitol by Cheng-Prusoff equation analysis relative to control; assay type: protein-complex assay; settings: time 30-60 min
Reported inhibition values are given for each entry in this list.
Numbers only here, please. The scale is %.

These recorded examples may help you get a feel for the data.
1. Cn1cc(-c2nc(NC3CCN(S(C)(=O)=O)CC3)ncc2F)cn1 :: 55
2. Nc1cc(-c2cnn(Cc3ccccc3)c2)nc(Nc2cccc(S(N)(=O)=O)c2)n1 :: 40
3. Cn1cc(-c2nc(Nc3cccc(S(=O)(=O)C(F)(F)F)c3)ncc2F)cn1 :: 20
4. Cn1cc(-c2nc(Nc3ccc(S(=O)(=O)C(F)(F)F)cc3)ncc2F)cn1 :: 6
5. Cc1nn(C)cc1-c1nc(NC2CCN(S(C)(=O)=O)CC2)ncc1Cl :: 27

The value of inhibition recorded for `Cn1nccc1-c1nc(Nc2cccc(S(N)(=O)=O)c2)ncc1F` when tested on CDK9/cyclin T1 (Homo sapiens) (UniProt O60563+P50750) reads 59

The value of inhibition recorded for `Cn1cc(-c2nc(Nc3cccc(S(=O)(=O)C(F)(F)F)c3)ncc2Cl)cn1` when tested on CDK9/cyclin T1 (Homo sapiens) (UniProt O60563+P50750) reads 45

###

target: Cyclin-dependent kinase 2/cyclin E (Homo sapiens, UniProt P24941); assay: Inhibition of CDK2/cyclin E (unknown origin) assessed as inhibition constant; assay type: protein-complex assay
METRIC NAME: Ki (nM)
Numbers only here, please. The scale is nM.

Entry under test: `CC[C@@H](Nc1nc(NCc2cnc(C)cc2C)c2ncn(C(C)C)c2n1)[C@H](C)O` . Its Ki was 5

###

target: Cyclin-dependent kinase 1/cyclin B (Homo sapiens, UniProt P06493); test: Inhibition of CDK1/Cyclin B (unknown origin) assessed as inhibition constant; format: protein-complex assay
METRIC NAME: Ki (nM)
Numbers only here, please. The scale is nM.

Entry under test: `CC[C@@H](Nc1nc(NCc2cnc(C)cc2C)c2ncn(C(C)C)c2n1)[C@H](C)O` . Its Ki was 578

Every entry's value here was drawn from ChEMBL document CHEMBL5241131.
